# EXPERIMENTAL_SYSTEM: MMP-3CD (catalytic domain of stromelysin) (Homo sapiens)
# Sequence (P08254 100-272 limits assumed): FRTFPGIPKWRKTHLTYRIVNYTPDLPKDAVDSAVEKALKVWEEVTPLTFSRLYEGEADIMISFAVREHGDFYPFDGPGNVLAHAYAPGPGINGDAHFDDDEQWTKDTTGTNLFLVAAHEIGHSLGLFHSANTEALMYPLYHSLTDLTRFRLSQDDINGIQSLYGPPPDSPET
# ASSAY_PROTOCOL: Thiopeptolide hydrolysis assay, MMP-3
# Format: biochemical
# TEST_CONDITIONS: Table 1b; read-out: MMP03 IC50
Structures can show the parent of a compound that is named as a salt.
METRIC_NAME: IC50 (µM)
The figure you give is taken to be in µM; do not add the unit.

# COMPOUND, METRIC_NAME, READOUT_NUMBER
rows = [
    ("O=C(NCc1ccncc1)c1cn2c(=O)n(Cc3ccccc3)c(=O)cc2s1 [hydrochloride]", "IC50", 68),
]

## Input Find the recorded IC50 belonging to Cc1c(=O)n(Cc2ccccc2)c(=O)n2cc(C(=O)NCc3ccccc3)sc12 and report it.
## Output 51

###

# EXPERIMENTAL_SYSTEM: MMP-3CD (catalytic domain of stromelysin) (Homo sapiens)
# ASSAY_PROTOCOL: Thiopeptolide hydrolysis assay, MMP-3
# Assay type: biochemical
# TEST_CONDITIONS: Table II; read-out: MMP03 IC50
pIC50: −log10 of the molar value.
List of pIC50 values.

# SUBSTANCE_SMILES, pIC50
records = [
    ("COc1ccc(CNC(=O)c2cccc(C(=O)NCc3ccccc3)c2)cc1", "< 4.00"),
    ("COc1cccc(CNC(=O)c2cccc(C(=O)NCc3ccc(Cl)c(Cl)c3)c2)c1", 4.17),
    ("O=C(NCc1ccc2c(c1)OCO2)c1cccc(C(=O)NCc2ccco2)c1", "< 4.00"),
]

## Input # input compound: CC(=O)c1ccc(C(=O)OCc2ccccc2)cc1C(=O)OCc1ccccc1 ; wanted: its pIC50
## Output < 4.00

## Input # lookup: pIC50 of O=C(OCc1ccc2nsnc2c1)c1cccc(C(=O)OCc2ccc3nsnc3c2)c1
## Output < 4.52

## Input Tell me the measured pIC50 of O=C(OCc1ccccc1)c1cccc(C(=O)OCc2ccccc2)c1 , please.
## Output < 4.52

## Input Entry COC(=O)c1ccc(CNC(=O)c2cccc(C(=O)NCc3cccc(OC)c3)c2)cc1 has what pIC50?
## Output 4.19

## Input Would you mind telling me what pIC50 value was observed for COc1cccc(CNC(=O)c2cccc(C(=O)NCc3ccc([N+](=O)[O-])cc3)c2)c1 ?
## Output < 4.00

## Input Entry O=C(NCc1ccc(Cl)cc1)c1cccc(C(=O)NCc2ccc(Cl)cc2)c1 : reported pIC50 = ?
## Output 5.03

###

Form field: pIC50 (one value per entry).
# EXPERIMENTAL_SYSTEM: MMP-3CD (catalytic domain of stromelysin) (Homo sapiens)
# ASSAY_PROTOCOL: Thiopeptolide hydrolysis assay, MMP-3;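 note: inhibition of thiopeptolide substrate (100 µM) cleavage by the MMP-3 catalytic domain, detected with DTNB at pH 6.0 with CaCl2, hydrolysis compared against runs lacking inhibitor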
# Assay type: biochemical
# TEST_CONDITIONS: Table 1b; read-out: MMP03 IC50
pIC50: −log10 of the molar value.

Recorded results for 5 compounds are shown here.
# COMPOUND, RESULT
measured = [
    ("COc1ccc(CNC(=O)c2cn3c(=O)n(Cc4ccccc4)c(=O)c(C=O)c3s2)cc1", 4.96),
    ("O=C(NCc1ccccc1)c1cn2c(=O)n(C(=O)c3ccccc3)c(=O)cc2s1", "< 4.52"),
    ("COC(=O)c1ccc(Cn2c(=O)c(C)c3sc(C(=O)NCc4ccc(F)cc4)cn3c2=O)cc1C", 4.74),
    ("Cc1ccc(CNC(=O)c2cn3c(=O)n(Cc4ccccc4)c(=O)c(C)c3s2)cc1", 4.72),
    ("Cc1c(=O)n(Cc2ccc3oc(=O)ccc3c2)c(=O)n2cc(C(=O)NCc3ccc(F)cc3)sc12", "< 4.52"),
]

## Input Requested field: pIC50. Item: COc1ccc(CNC(=O)c2cn3c(=O)n(Cc4ccccc4)c(=O)c(C)c3s2)cn1
## Output < 5.00

## Input What does the data say about its pIC50? Entry: Cc1c(=O)n(Cc2ccc(-c3nn[nH]n3)cc2)c(=O)n2cc(C(=O)NCc3ccc(F)cc3)sc12
## Output 4.80

## Input pIC50 lookup needed for O=C(OCc1ccccc1)C1C[S+]([O-])c2cc(=O)n(Cc3ccccc3)c(=O)n21 (stereo not drawn) , thanks.
## Output 4.64

## Input May I ask what pIC50 has been recorded for O=C(NCc1ccncc1)C1Cn2c(cc(=O)n(Cc3ccccc3)c2=O)S1 (stereo not drawn) ?
## Output < 4.00

## Input Need pIC50, item COC(=O)c1ccc(Cn2c(=O)c(C)c3sc(C(=O)NCc4ccc(OC)cc4)cn3c2=O)cc1
## Output 4.19

## Input If you can, please state the reported pIC50 value of COc1ccc(CNC(=O)c2cn3c(=O)n(Cc4ccc(Cl)c(Cl)c4)c(=O)cc3s2)cc1 .
## Output < 4.00
